- Target Entity: Mannose-6-phosphate isomerase (Homo sapiens) (UniProt P34949)
- Sequence (P34949 whole entry, looked up): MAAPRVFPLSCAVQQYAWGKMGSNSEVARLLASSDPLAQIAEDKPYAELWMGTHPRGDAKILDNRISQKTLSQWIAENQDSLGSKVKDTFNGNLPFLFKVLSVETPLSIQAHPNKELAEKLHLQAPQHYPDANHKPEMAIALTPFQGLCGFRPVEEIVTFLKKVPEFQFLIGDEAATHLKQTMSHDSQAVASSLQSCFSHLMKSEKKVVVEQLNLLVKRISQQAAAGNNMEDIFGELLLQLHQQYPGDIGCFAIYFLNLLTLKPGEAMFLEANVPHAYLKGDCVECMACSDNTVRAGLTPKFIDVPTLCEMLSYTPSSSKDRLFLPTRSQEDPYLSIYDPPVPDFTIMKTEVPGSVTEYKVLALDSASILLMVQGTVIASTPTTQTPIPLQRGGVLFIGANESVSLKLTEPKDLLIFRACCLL
- Procedure Summary: MPI inhibition at elevated mannose 6-phosphate – biochemical, fluorescence intensity, high mannose 6-phosphate, primary screen (AID 1220)
- Assay Conditions: recombinant PMI enzyme, coupled fluorescence intensity; at 20 µM; hits give high values
Among all 190,000 compounds or so, about 1,300 (0.68%) were called active. This is one part of a sample in which actives are shown more often than they occur.
Recorded Endpoint: inhibition (%)

- Molecule: "CN1CCN(c2c(C#N)c(C(F)(F)F)nn2C)CC1"
  Recorded Endpoint: "inhibition"
  Recorded Measurement: -13.8
- Molecule: "COc1cc(/C=N/NP(=S)(c2ccccc2)c2ccccc2)ccc1O"
  Recorded Endpoint: "inhibition"
  Recorded Measurement: 4.4
- Molecule: "CCC[N+]12CCC(CC1)C(=C(c1ccccc1)c1ccccc1)C2"
  Recorded Endpoint: "inhibition"
  Recorded Measurement: 5.9
- Molecule: "CC(=O)NC1C(OC(=O)Cc2ccccc2)OC(COC(C)=O)C(OC(C)=O)C1OC(C)=O (stereo not given)"
  Recorded Endpoint: "inhibition"
  Recorded Measurement: -6
- Molecule: "CCN(CC)c1ccc([N+](=O)[O-])c2cccnc12"
  Recorded Endpoint: "inhibition"
  Recorded Measurement: 67.2
- Molecule: "Cc1sc2ncn(CC(=O)NCCCC(=O)N3CCC4(CC3)OCCO4)c(=O)c2c1C"
  Recorded Endpoint: "inhibition"
  Recorded Measurement: -1.4
- Molecule: "COc1cc(CN2CCCC(C(=O)c3sccc3C)C2)cc(Cl)c1O (stereo not given)"
  Recorded Endpoint: "inhibition"
  Recorded Measurement: 14
- Molecule: "CC(NC(=O)Oc1ccccc1)C(c1cccs1)N1CCOCC1 (stereo not given)"
  Recorded Endpoint: "inhibition"
  Recorded Measurement: 3
- Molecule: "COc1ccc(CN2CCCC(C(=O)c3sccc3C)C2)cc1O (stereo not given)"
  Recorded Endpoint: "inhibition"
  Recorded Measurement: 1.4
- Molecule: "NCCNc1ccc([N+](=O)[O-])c2cccnc12"
  Recorded Endpoint: "inhibition"
  Recorded Measurement: 51.1
- Molecule: "COc1cc(CN2CCCC(C(=O)c3sccc3C)C2)cc(OC)c1O (stereo not given)"
  Recorded Endpoint: "inhibition"
  Recorded Measurement: 65.3
- Molecule: "CCC(CO)Nc1ccc([N+](=O)[O-])c2cccnc12 (stereo not given)"
  Recorded Endpoint: "inhibition"
  Recorded Measurement: 38.6
- Molecule: "COc1ccc(OC)c(N2Cc3ccccc3C2=N)c1"
  Recorded Endpoint: "inhibition"
  Recorded Measurement: -9.9
- Molecule: "Cc1nonc1OCCNCCNc1ccc([N+](=O)[O-])c2cccnc12"
  Recorded Endpoint: "inhibition"
  Recorded Measurement: 39
- Molecule: "O=C(NCCCN1CCOCC1)C(Cl)(Cl)Cl"
  Recorded Endpoint: "inhibition"
  Recorded Measurement: -7.8
